target: GPR35 (Homo sapiens (Human)); assay: Label-free DMR functional assay in HT-29 cells; type: cell-based; settings: HT-29 cell line endogenously expressing human GPR35; DMR normalised to Lodoxamide
Sequence (Q9HC97 whole entry): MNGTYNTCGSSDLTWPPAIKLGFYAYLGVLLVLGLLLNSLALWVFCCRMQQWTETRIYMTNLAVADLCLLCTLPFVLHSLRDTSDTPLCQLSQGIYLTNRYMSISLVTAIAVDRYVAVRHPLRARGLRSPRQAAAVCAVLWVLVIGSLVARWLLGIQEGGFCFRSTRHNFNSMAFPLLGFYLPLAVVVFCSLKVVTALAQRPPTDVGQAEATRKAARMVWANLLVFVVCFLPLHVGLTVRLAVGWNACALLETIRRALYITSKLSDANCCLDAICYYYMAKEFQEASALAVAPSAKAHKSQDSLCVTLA
QUANTITY KIND: log10(EC50) (log10 of the value in nM)
Short version: log10 scale, EC50, nM.

// recorded log10(EC50) for O=c1c(O)c(Nc2ccc(Cl)c(-c3nn[nH]n3)c2)c1=O [Example 14] : 0.69

New cases:
// recorded log10(EC50) for O=C(NCc1ccccc1)c1ccc(-c2cc(Nc3c(O)c(=O)c3=O)cc(-c3nn[nH]n3)c2)cc1 [Example 5] : -0.28

// recorded log10(EC50) for O=C(NCc1ccccc1)c1cccc(-c2cc(Nc3c(O)c(=O)c3=O)cc(-c3nn[nH]n3)c2)c1 [Example 6] : -0.21

// recorded log10(EC50) for O=c1c(O)c(Nc2cc(-c3ccc4[nH]ncc4c3)cc(-c3nn[nH]n3)c2)c1=O [Example 25] : -0.36

// recorded log10(EC50) for CCOC(=O)c1cccc(-c2cc(Nc3c(O)c(=O)c3=O)cc(-c3nn[nH]n3)c2)c1 [Example 4] : 0.40

// recorded log10(EC50) for O=c1c(O)c(Nc2cc(-c3ccc4cn(CCOc5ccc(C(F)(F)F)cc5)nc4c3)cc(-c3nnn[nH]3)c2)c1=O [Example 23] : -0.92

// recorded log10(EC50) for COc1cccc(-c2cc(Nc3c(O)c(=O)c3=O)cc(-c3nn[nH]n3)c2)c1 [Example 9] : -0.08

// recorded log10(EC50) for O=c1c(O)c(Nc2cc(-c3ccc(C(F)(F)F)cc3)cc(-c3nn[nH]n3)c2)c1=O [Example 15] : 0.31

// recorded log10(EC50) for O=c1c(O)c(Nc2cccc(-c3nn[nH]n3)c2)c1=O [Example 1] : 0.94

// recorded log10(EC50) for O=c1c(O)c(Nc2cc(-c3nn[nH]n3)cc(-c3ccccc3)n2)c1=O [Example 18] : 0.71

// recorded log10(EC50) for O=C(O)c1cccc(-c2cc(Nc3c(O)c(=O)c3=O)cc(-c3nn[nH]n3)c2)c1 [Example 11] : 0.63

// recorded log10(EC50) for O=c1c(O)c(Nc2cc(-c3ccc4nn(Cc5ccc(C(F)(F)F)cc5)cc4c3)cc(-c3nn[nH]n3)c2)c1=O [Example 19] : -1.10

// recorded log10(EC50) for O=c1c(O)c(Nc2ccc(F)c(-c3nn[nH]n3)c2)c1=O [Example 13] : 0.38

Each recorded value in this set is attributed to patent US20240254093A1.
